tested on: A549; experiment: cells; type: functional; details: Homo sapiens, A549, 96 h
Description: Growth inhibition of human A549 cells after 96 hrs by MTT assay
MEASUREMENT_LABEL: GI50 (µM)
One number for each entry, in µM.

O=C(NCCCCCCS)c1cc(-c2ccncc2)n[nH]1
14.4
C=CCOC(=O)SCCCCCCNC(=O)c1cc(-c2ccncc2)n[nH]1
15.2
O=C(OCc1ccccc1)SCCCCCCNC(=O)c1cc(-c2ccncc2)n[nH]1
13.4

Required: GI50, one value per molecule below.
1. O=C(NCCCCCCSSCCCCCCNC(=O)c1cc(-c2ccncc2)n[nH]1)c1cc(-c2ccncc2)n[nH]1
2. CCCCCCCC/C=C\CCCCCCCC(=O)SCCCCCCNC(=O)c1cc(-c2ccncc2)n[nH]1
3. CC(=O)SCCCCCCNC(=O)c1cc(-c2ccncc2)n[nH]1
4. CC(C)C(=O)SCCCCCCNC(=O)c1cc(-c2ccncc2)n[nH]1

1. 6.07
2. 33.3
3. 18
4. 16.8

Where do these numbers come from? They come from ChEMBL document CHEMBL3758091.
